Provide the reported Minimal inhibitory concentration, Mu50 of each item.
tested on: S. aureus Mu50; format: cell-based
Non-standard residues stand in square brackets, D forms with d. Residues, ends and D or L forms follow the SMILES beside them. *: point of attachment. Decanoyl = CCCCCCCCCC(=O)*; Octanoyl = CCCCCCCC(=O)*
Answers are plain numbers, in µM.

Some compounds with known Minimal inhibitory concentration, Mu50 results, for comparison:
CCCCCCCCCC(=O)N[C@H](CCCCN)C(=O)N[C@H](CCCNC(=N)N)C(=O)N[C@@H](C(=O)N[C@H](Cc1c[nH]c2ccccc12)C(=O)N[C@H](CCC(N)=O)C(=O)N[C@H](CCCNC(=N)N)C(=O)N[C@@H](C(=O)N[C@H](CCCCN)C(N)=O)[C@H](C)CC)[C@H](C)CC [Peptide C10-KR8d] (Decanoyl-[dK][dR][dI][dW][dQ][dR][dI][dK]-NH2) | 3.1
CCCCCCCC(=O)N[C@@H](CCCCN)C(=O)N[C@@H](CCCNC(=N)N)C(=O)N[C@H](C(=O)N[C@@H](Cc1c[nH]c2ccccc12)C(=O)N[C@@H](CCC(N)=O)C(=O)N[C@@H](CCCNC(=N)N)C(=O)N[C@H](C(=O)N[C@@H](CCCCN)C(=O)N[C@@H](CC(=O)O)C(=O)N[C@@H](Cc1ccccc1)C(N)=O)[C@@H](C)CC)[C@@H](C)CC [Peptide C8-KR10] (Octanoyl-KRIWQRIKDF-NH2) | 6.2
CCCCCCCCCC(=O)N[C@@H](CCCCN)C(=O)N[C@@H](CCCNC(=N)N)C(=O)N[C@H](C(=O)N[C@@H](Cc1c[nH]c2ccccc12)C(=O)N[C@@H](CCC(N)=O)C(=O)N[C@@H](CCCNC(=N)N)C(=O)N[C@H](C(=O)N[C@@H](CCCCN)C(N)=O)[C@@H](C)CC)[C@@H](C)CC [Peptide C10-KR8] (Decanoyl-KRIWQRIK-NH2) | 3.1

I have this compound here, CCCCCCCC(=O)N[C@H](CCCCN)C(=O)N[C@H](CCCNC(=N)N)C(=O)N[C@@H](C(=O)N[C@H](Cc1c[nH]c2ccccc12)C(=O)N[C@H](CCC(N)=O)C(=O)N[C@H](CCCNC(=N)N)C(=O)N[C@@H](C(=O)N[C@H](CCCCN)C(=O)N[C@H](CC(=O)O)C(=O)N[C@H](Cc1ccccc1)C(N)=O)[C@H](C)CC)[C@H](C)CC [Peptide C8-KR10d] (Octanoyl-[dK][dR][dI][dW][dQ][dR][dI][dK][dD][dF]-NH2) , and I need its recorded Minimal inhibitory concentration, Mu50. 3.1
